Below, each entry is listed alongside its reported Inhibition.
# test.target: human Dock5 (Homo sapiens)
# Construct: plasmid expressing the catalytic DHR2 domain of mouse or human Dock5; expressed in transfected cells; host or cells: 293T cells
# assay.summary: Pull down assay of Rac activation by human Dock5 DHR2 in transfected 293T cells
# Type: cell-based
# condition.context: Table 3; human Dock5; test concentration 100 µM, 1 hour; replicate values; 100 µM
endpoint.label: Inhibition (%)

[
  {
    "compound": "O=S1(=O)N(c2cccc(Cl)c2)C[C@H](O)[C@]12CCN(Cc1ccccc1)C2 [E235]",
    "observed": 85
  },
  {
    "compound": "Cn1cc(CN2CC[C@@]3(C2)[C@@H](O)CN(c2ccccc2)S3(=O)=O)c2ccccc21 (racemic) [E204]",
    "observed": 95
  },
  {
    "compound": "O=S1(=O)N(C2CCCCC2)C[C@H](O)[C@]12CCN(Cc1ccccc1)C2 [E233]",
    "observed": 60
  },
  {
    "compound": "O=S1(=O)N(c2ccccc2)C[C@H](O)[C@]12CCN(Cc1ccc3[nH]ccc3c1)C2 [E212]",
    "observed": 100
  }
]

----------
# test.target: human Dock5 (Homo sapiens)
# Construct: plasmid expressing the catalytic DHR2 domain of mouse or human Dock5
# assay.summary: Pull down assay of Rac activation by human Dock5 DHR2 in transfected 293T cells
# condition.context: human Dock5; 1 hour treatment
# Protocol: Compounds E73, E88 and E78 were tested for their inhibiting effect of the activation of Rac by mouse Dock5 of and for certain human Dock5 according to a screening test using a pull down assay as represented in Figure 1. Methodology (Figure 1): cells 293T seeded onto 100 mm diameter plates in a DMEM culture medium containing 10% serum in an incubator in 5.5% CO2 humidified atmosphere at 37°C. […] The basal activation of Rac by Dock5 is measured from the cells treated with 0.5% DMSO. […]
Below, each entry is listed alongside its reported IC50.
endpoint.label: IC50

[
  {
    "compound": "Cn1cc(CN2CC[C@@]3(C2)[C@@H](O)CN(c2ccccc2)S3(=O)=O)c2ccccc21 (racemic) [E204]",
    "endpoint.label": "IC50",
    "observed": "33 µM"
  },
  {
    "compound": "O=S1(=O)N(c2ccccc2)C[C@H](O)[C@]12CCN(Cc1ccc3c(c1)CCC3)C2 (racemic) [E210]",
    "endpoint.label": "IC50",
    "observed": "32 µM"
  },
  {
    "compound": "O=S1(=O)N(c2ccccc2)C[C@H](O)[C@]12CCN(Cc1ccc(Cl)cc1)C2 (racemic) [E197]",
    "endpoint.label": "IC50",
    "observed": "36 µM"
  }
]

----------
# test.target: human Dock5 (Homo sapiens, UniProt Q9H7D0)
# Construct: plasmid expressing the catalytic DHR2 domain of mouse or human Dock5; expressed in transfected cells; host or cells: 293T cells
# Sequence (Q9H7D0 1231-1642 limits assumed): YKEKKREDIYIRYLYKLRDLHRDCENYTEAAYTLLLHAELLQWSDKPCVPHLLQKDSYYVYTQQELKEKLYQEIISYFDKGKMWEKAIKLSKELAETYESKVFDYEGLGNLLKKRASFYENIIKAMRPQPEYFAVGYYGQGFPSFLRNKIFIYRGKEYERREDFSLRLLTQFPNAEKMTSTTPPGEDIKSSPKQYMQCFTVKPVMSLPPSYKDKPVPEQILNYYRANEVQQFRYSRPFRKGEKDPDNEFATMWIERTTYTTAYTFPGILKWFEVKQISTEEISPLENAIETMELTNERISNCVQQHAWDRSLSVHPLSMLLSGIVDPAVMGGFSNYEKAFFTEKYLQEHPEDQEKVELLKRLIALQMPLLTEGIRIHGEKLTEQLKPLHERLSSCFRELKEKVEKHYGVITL
# assay.summary: Pull down assay of Rac activation by human Dock5 DHR2 in transfected 293T cells
# Assay type: cell-based
# condition.context: HEK-293T, Table 3; human Dock5; at 50µM
# Experimental: Compounds E73, E88 and E78 were tested for their inhibiting effect of the activation of Rac by mouse Dock5 of and for certain human Dock5 according to a screening test using a pull down assay as represented in Figure 1. Methodology (Figure 1): cells 293T seeded onto 100 mm diameter plates in a DMEM culture medium containing 10% serum in an incubator in 5.5% CO2 humidified atmosphere at 37°C. […] The basal activation of Rac by Dock5 is measured from the cells treated with 0.5% DMSO. […]
Below, each entry is listed alongside its reported inhibition at 50 µM.
endpoint.label: inhibition at 50 µM (%)

[
  {
    "compound": "COc1ccc(N2CCC3(CCN(Cc4cccc(Cl)c4)C3)C2=O)cc1C (centres unmarked) [E228]",
    "test.target": "human Dock5 (Homo sapiens, UniProt Q9H7D0)",
    "unit.symbol": "%",
    "observed": 65
  },
  {
    "compound": "O=S1(=O)N(c2cccc(Cl)c2)C[C@@H](O)[C@]12CCN(Cc1ccccc1)C2 [E236]",
    "test.target": "human Dock5 (Homo sapiens, UniProt Q9H7D0)",
    "unit.symbol": "%",
    "observed": 20
  },
  {
    "compound": "O=S1(=O)N(c2ccccc2)C[C@H](O)[C@]12CCN(Cc1ccc3c(c1)CCC3)C2 (racemic) [E210]",
    "test.target": "human Dock5 (Homo sapiens, UniProt Q9H7D0)",
    "unit.symbol": "%",
    "observed": 85
  },
  {
    "compound": "Cn1cc(CN2CC[C@@]3(C2)[C@@H](O)CN(c2ccccc2)S3(=O)=O)c2ccccc21 (racemic) [E204]",
    "test.target": "human Dock5 (Homo sapiens, UniProt Q9H7D0)",
    "unit.symbol": "%",
    "observed": 60
  },
  {
    "compound": "O=S1(=O)N(c2ccccc2)C[C@H](O)[C@]12CCN(Cc1ccccc1Cl)C2 (racemic) [E196]",
    "test.target": "human Dock5 (Homo sapiens, UniProt Q9H7D0)",
    "unit.symbol": "%",
    "observed": 40
  }
]
